# reported ELISA signal; entries follow
molecular target: T1, His-tagged human CD38 (ACRO Biosystems CD8-H5224) (human, UniProt P28907 43-300); experiment: ELISA, 1 ug/ml scFv-Fc, coated His-tagged CD38
T1 construct: bought protein; used for ELISA coating and as SPR analyte; not shown: His tag
Answer using only a numeral; do not append any unit.

40769p2.2.A6 scFv-Fc (scFv, V domains shown, scFv-Fc) VH: EVQLLESGGGLVQPGGSLRLSCAASGFTFSDYEMNWVRQAPGKGLEWVSAISITGSWTYYADSVKGRFTISRDNSENTLYLQMNNLRAEDTAVYYCANYKSYYGMDVWGRGTTVTVSS VL: QSVLTQPPSASGTPGQRVTISCSGSRSNIRNNLVNWYQQLPGTAPKLLIYNTQRPSGVPDRFSGSKSGTSASLAISGLQSEDEADYYCASWDASLNAWVFGGGTKLTVL ... 1.75

Q: ELISA signal for 40769p2.2.A5 scFv-Fc (scFv, V domains shown, scFv-Fc) VH: EVQLLESGGGLIQPGGSLRLSCTASGFDFSSYGMHWVRQAPGKGLEWVGIISDTGGTTYYGDSVKGRFTISRDNSKSTLYLQMNSLRAEDTALYYCASYIMDVWGQGTTVTVSS VL: QSVLTQPPSASGTPGQRVTISCSGSNSNVGDNAVYWYQQLPGTAPKLLFYGTNRRPSGVPDRFSGSKSGTSASLAISGLQSEDEADYYCAAWDDSLNAWVFGGGTKLTVL ?
Ans: 1.76
